Where do the numbers come from? From PubChem BioAssay (Tox21).

METHOD NOTES: qHTS assay to identify small molecule antagonists of the retinoic acid receptor (RAR) signaling pathway (AID 1159552; further: on the % scale 0 is the no-effect control and ±100 the full control effect; nearly all actives have a fitted effect of over 50% in size)
CONDITION DESCRIPTION: C3RL4 RARE luciferase reporter, retinol-stimulated, 6 h; series mostly up to 92.4 µM
Description: National Center for Advancing Translational Sciences [NCATS] NIH Chemical Genomics Center [NCGC] U.S. Environmental Protection Agency [EPA] National Institutes of Environmental Health Sciences [NIEHS] National Toxicology Program [NTP] U.S. Food and Drug Administration [FDA] […]
Results filed as inconclusive are left out. Activity calls are given as the source filed them. The call rests on the fitted dose curve; in most records, active means well fitted inhibition curve with a large enough effect in the repeat runs; inconclusive means weak or mixed curves, or effect the other way; inactive means no such curve, though single readings can be large or run the other way.
VALUE TYPE: activity, negative = inhibition

1. CC(C)(C)c1ccc(OCC2CO2)cc1 (stereo not drawn); inactive
2. Nc1ccc(C(=O)N2CC3CC(CN(Cc4ccccc4)C3)C2)cc1; inactive
3. CC(=O)/C=C/C1C(C)=CCCC1(C)C (stereo not drawn); inactive
4. C1=Cc2ccccc2C1; inactive
5. CC/C(=C\C(=N/O)C(N)=O)C(C)[N+](=O)[O-] (stereo not drawn); inactive
6. C#CCOC(=O)[C@@H](C)Oc1ccc(Oc2ncc(Cl)cc2F)cc1; inactive
7. O=C(C(=O)c1ccc(Br)cc1)c1ccc(Br)cc1; 45.5% [at 19 µM] (inactive)
8. O=C(O)c1cn(C2CC2)c2cc(Cl)c(F)cc2c1=O; inactive
9. Oc1ccc2c(c1)OCO2; inactive
10. Cc1cccc(OCCOc2cccc(C)c2)c1; inactive
11. C1CCC2OC2C1 (stereo not drawn); inactive
12. O=C(CCN1CCN2CCCC2C1)N1c2ccccc2Sc2ccc(Cl)cc21 (stereo not drawn); -11.3% [at 19 µM] (inactive)
13. CC(C)c1cccc(C(C)C)c1NC(=O)NS(=O)(=O)c1cc(C(C)(C)O)co1; inactive

----------
TARGET OR TEST SYSTEM: Vitamin D3 receptor (Homo sapiens) (UniProt P11473)
Sequence (P11473 whole entry, looked up): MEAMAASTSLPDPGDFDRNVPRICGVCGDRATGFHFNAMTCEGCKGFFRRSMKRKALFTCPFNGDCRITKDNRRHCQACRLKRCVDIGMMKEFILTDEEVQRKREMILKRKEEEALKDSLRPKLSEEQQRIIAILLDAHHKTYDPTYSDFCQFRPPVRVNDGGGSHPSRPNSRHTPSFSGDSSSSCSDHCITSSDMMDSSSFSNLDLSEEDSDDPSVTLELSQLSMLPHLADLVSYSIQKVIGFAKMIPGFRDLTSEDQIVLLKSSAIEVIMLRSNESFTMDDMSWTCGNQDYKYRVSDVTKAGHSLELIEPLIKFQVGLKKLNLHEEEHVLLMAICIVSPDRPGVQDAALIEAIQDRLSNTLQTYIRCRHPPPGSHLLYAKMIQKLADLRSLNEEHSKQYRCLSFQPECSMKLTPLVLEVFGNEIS
METHOD NOTES: qHTS assay to identify small molecule antagonists of the vitamin D receptor (VDR) signaling pathway (AID 743223); further: on the % scale 0 is the no-effect control and ±100 the full control effect
CONDITION DESCRIPTION: VDR-UAS-bla HEK293T, beta-lactamase FRET ratio, 16 h; series mostly up to 61 µM
Records with an inconclusive call do not appear. Active and inactive are the calls of the source. Calls follow the shape of the dose curve; as a rule, active = well fitted inhibition curve with a large enough effect in the signal ratio in the repeat runs (not every such curve was filed as active); inconclusive = weak or mixed curves, or effect the other way; inactive = no such curve, though single readings can be large or run the other way; the % refers to the signal ratio.
VALUE TYPE: activity change, negative = inhibition

1. COC(=O)CSc1cc(N=c2sc(=O)n3n2CCCC3)c(F)cc1Cl; inactive
2. NC(N)=N/N=C/c1c(Cl)cccc1Cl; inactive
3. CC(C)(C)c1cc(CCC(=O)OCC(COC(=O)CCc2cc(C(C)(C)C)c(O)c(C(C)(C)C)c2)(COC(=O)CCc2cc(C(C)(C)C)c(O)c(C(C)(C)C)c2)COC(=O)CCc2cc(C(C)(C)C)c(O)c(C(C)(C)C)c2)cc(C(C)(C)C)c1O; inactive
4. CC(=O)CC(=O)c1ccccc1; inactive
5. NCCCN(CCO)CCO; inactive
6. O=C=NC1CCC(CC2CCC(N=C=O)CC2)CC1 (stereo unspecified); inactive
7. NCc1ccccc1; inactive
8. O=S1(=O)c2cccc3cccc(c23)N1CCCN1CCN(c2ccc(F)cc2)CC1; inactive
9. CCCCOC(=O)/C=C\C(=O)OCCCC; inactive
10. O=C(CCN1CCN2CCCC2C1)N1c2ccccc2Sc2ccc(Cl)cc21 (stereo unspecified); inactive
11. CC[C@H](C)[C@@H](C(=O)O)n1sc2ccccc2c1=O; inactive

----------
TARGET OR TEST SYSTEM: Cytochrome P450 1A2 (Homo sapiens) (UniProt P05177)
Sequence (P05177 whole entry, looked up): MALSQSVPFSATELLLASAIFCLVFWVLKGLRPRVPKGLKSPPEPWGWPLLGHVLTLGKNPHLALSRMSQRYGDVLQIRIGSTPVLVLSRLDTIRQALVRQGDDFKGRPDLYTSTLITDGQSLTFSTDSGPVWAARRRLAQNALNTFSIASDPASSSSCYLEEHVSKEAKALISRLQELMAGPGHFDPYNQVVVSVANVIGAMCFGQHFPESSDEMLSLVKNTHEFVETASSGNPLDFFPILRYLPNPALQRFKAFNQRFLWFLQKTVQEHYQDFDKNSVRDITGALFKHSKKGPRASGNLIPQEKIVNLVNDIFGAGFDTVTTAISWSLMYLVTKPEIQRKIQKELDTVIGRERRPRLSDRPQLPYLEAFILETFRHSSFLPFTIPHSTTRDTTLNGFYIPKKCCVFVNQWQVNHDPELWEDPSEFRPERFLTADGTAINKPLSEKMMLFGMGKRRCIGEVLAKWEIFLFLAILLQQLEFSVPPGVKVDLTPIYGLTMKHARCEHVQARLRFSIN
METHOD NOTES: Cytochrome P450 Family 1 Subfamily A Member 2 (CYP1A2) small molecule antagonists: luciferase reporter qHTS assay (AID 1671199); further: nearly all actives have a fitted effect of over 50% in size
CONDITION DESCRIPTION: P450-Glo CYP1A2 enzyme, luciferin luminescence, 1 h; series mostly up to 115 µM
Results filed as inconclusive are left out. Calls of active or inactive are those of the source. The call rests on the fitted dose curve; in most records, active means well fitted inhibition curve with a large enough effect in the repeat runs; inconclusive means weak or mixed curves; inactive means no such curve, though single readings can be large or run the other way.
Outcomes: Y (active), N (inactive)

1) NC1CCN(c2nc3c(cc2F)c(=O)c(C(=O)O)cn3-c2ccc(F)cc2F)C1 (stereo unspecified); N
2) COc1cc(C(C)(C)C)c(O)c(C(C)(C)C)c1; Y
3) CCCCCOC(=O)COc1cc(N2C(=O)C3=C(CCCC3)C2=O)c(F)cc1Cl; Y
4) COC(=O)CSc1cc(N=c2sc(=O)n3n2CCCC3)c(F)cc1Cl; Y
5) C=CC(=O)OCC(C)OCC(C)OCC(C)OC(=O)C=C (stereo unspecified); Y
6) O=S1(=O)c2cccc3cccc(c23)N1CCCN1CCN(c2ccc(F)cc2)CC1; Y

----------
METHOD NOTES: qHTS assay for small molecule disruptors of the mitochondrial membrane potential (AID 720635)
CONDITION DESCRIPTION: HepG2 mitochondrial membrane potential, Mito-MPS dye ratio; series mostly up to 83.2 µM
Inconclusive results are not listed. The source made the active and inactive calls. The call rests on the fitted dose curve; in most records, active means well fitted inhibition curve with a large enough effect in the signal ratio in the repeat runs; inconclusive means weak or mixed curves, or effect the other way; inactive means flat fitted curve, though single readings scatter; the % refers to the signal ratio.
Outcomes: 1 = active, -1 = inactive

1. CC[C@]12CCCN3CCc4c(n(c5ccccc45)C(=O)C1)[C@@H]32; -1
2. O=C1[C@H](CC[C@H](O)c2ccc(F)cc2)[C@@H](c2ccc(O)cc2)N1c1ccc(F)cc1; 1
3. CC(=O)NCCCS(=O)(=O)O; -1
4. O=c1c2ccccc2nnn1CCl; -1
5. Cc1ccc(C(C)c2ccc(C)c(C)c2)cc1C; -1
6. N=C(N=C(N)N)N1CCOCC1; -1
7. C=CCCCCCC; -1
8. CC(=O)CC(=O)c1ccccc1; -1
9. CCN(CC)CCOc1ccc2c(c1)C(=O)c1cc(OCCN(CC)CC)ccc1-2; -1
10. CCCC[C@H]1CN(CC2CCOCC2)C(=O)OC12CCN(C1(C)CCN(C(=O)c3c(C)ncnc3C)CC1)CC2; -1
11. CC(=O)O[C@H]1C[C@@H]2CC[C@@H]3[C@H](CC[C@@]4(C)[C@H]3C[C@H]([N+]3(C)CCCCC3)[C@@H]4OC(C)=O)[C@@]2(C)C[C@@H]1N1CCCCC1; -1

----------
METHOD NOTES: qHTS assay for small molecule disruptors of the mitochondrial membrane potential (AID 720635)
CONDITION DESCRIPTION: HepG2 mitochondrial membrane potential, Mito-MPS dye ratio; series mostly up to 83.2 µM
Inconclusive results are not listed. Activity calls are given as the source filed them. Calls come from the whole dose curve; as a rule, active = well fitted inhibition curve with a large enough effect in the signal ratio in the repeat runs; inconclusive = weak or mixed curves, or effect the other way; inactive = flat fitted curve, though single readings scatter; the % refers to the signal ratio.
Outcome codes: 1 (active), 0 (inactive)

1. ClC(Cl)(Cl)c1ccc(C(Cl)(Cl)Cl)cc1; 1
2. C=Cc1c(C)c2cc3[nH]c(cc4nc(cc5nc(cc1[nH]2)C(C)=C5CCC(=O)O)C(CCC(=O)O)=C4C)c(C)c3C=C; 0
3. CCCCCOC(=O)c1ccc(O)cc1; 1
4. CC(=O)/C(C)=C/C1C(C)=CCCC1(C)C (centres undefined); 0
5. N#Cc1cc2ccccc2c2ccccc12; 1
6. CC(C)(C)c1ccc(S)cc1; 0
7. Cc1ccc(C(=O)C(C)CN2CCCCC2)cc1 (centres undefined); 0
8. Cc1c(Cn2ccnc2)c2ccccc2n1CCC(=O)O; 0
9. SC1CCCC1; 0
10. O=S1(=O)N=C(O)c2ccccc21; 0
11. Cc1ccccc1N=Nc1ccc(N=Nc2c(O)ccc3ccccc23)c(C)c1; 0
12. C1CCC2OC2C1 (centres undefined); 0
13. O=C(NN1CCCC1)NS(=O)(=O)c1ccc(Cl)cc1; 0
14. Cc1cc(CC(=O)O)c(C)n1-c1ccc(Cl)cc1; 0
15. CCCCCCCCCCCCCCCC(=O)OC/C=C(C)/C=C/C=C(C)/C=C/C1=C(C)CCCC1(C)C; 0
16. CCN(CC)C(C)CN1c2ccccc2Sc2ccccc21 (centres undefined); 0
17. Nc1nc(N)c(-c2ccccc2)s1; 0
18. NC(=S)N/N=C/c1cccnc1; 0
19. CCOC(=S)SSC(=S)OCC; 0

----------
METHOD NOTES: qHTS assay to identify small molecule antagonists of the sonic hedgehog signaling (Shh) pathway (AID 1259369); further: nearly all actives have a fitted effect of over 45% in size
CONDITION DESCRIPTION: NIH/3T3 Gli1-Luc reporter, Shh antagonist, luminescence 24 h; series mostly up to 92.4 µM
Inconclusive results are not listed. Calls of active or inactive are those of the source. The call rests on the fitted dose curve.
Outcomes: Yes = active, No = inactive

1) CC(C)(C)C(=O)OCOP(=O)(COCCn1cnc2c(N)ncnc21)OCOC(=O)C(C)(C)C; Yes
2) CC(=O)SCc1ccco1; No
3) CCCCOCCOCCOCCOCCO; No
4) Cn1c(NCCN(CCO)CCCc2ccc([N+](=O)[O-])cc2)cc(=O)n(C)c1=O; No
5) CN1CCN(C2=Nc3ccccc3Sc3ccc(Cl)cc32)CC1; No
6) CC(C)c1ccccc1C(C)C; No
7) CC1=CC(=O)/C(=C(/C)O)C(=O)O1; No
8) CCCCCOC(=O)c1ccc(O)cc1; Yes
9) O=C(O)c1cn(C2CC2)c2cc(Cl)c(F)cc2c1=O; No
10) COc1ccc(OC)c(OC)c1; No
11) O=S1(=O)c2cccc3cccc(c23)N1CCCN1CCN(c2ccc(F)cc2)CC1; No
12) Cl/C(=C\n1cncn1)c1ccc(Cl)cc1Cl; No
13) O=C1CCCCCO1; No
14) CC1(C)[C@H]2CC[C@]1(C)[C@H](O)C2; No
15) CCCCOC(=O)c1ccccc1C(=O)OCC(CC)CCCC (stereo not drawn); No
16) OC(CCN1CCCCC1)(c1ccccc1)C1CCCCC1 (stereo not drawn); Yes
17) Cc1ccccn1; No
18) CC[C@@H]1C[C@H](N(Cc2cc(C(F)(F)F)cc(C(F)(F)F)c2)C(C)=O)c2cc(C(F)(F)F)ccc2N1C(=O)OC(C)C; Yes
19) CCCCC(CC)(CO)CO; No
20) NC(N)=NN=C(/C=C/c1ccc([N+](=O)[O-])o1)/C=C/c1ccc([N+](=O)[O-])o1; Yes
21) O=C(O)c1cccc(N(Cc2cccnc2)c2ccc(OC(F)F)c(OC(F)F)c2)c1; Yes
22) Oc1ccc(O)c2c(O)cccc12; No
23) O=C(O)Cc1cc(I)c(Oc2ccc(O)c(I)c2)c(I)c1; No
24) NCCCN(CCO)CCO; No
25) CCC(=O)OC(C)(C)C1CC=C(C)CC1 (stereo not drawn); No
26) COCCO; No
27) SC1CCCC1; No
28) Cc1cccc(C(C)(C)C)c1O; No
